- Target Under Test: Neuronal acetylcholine receptor subunit alpha-7 (Mus musculus)
- Assay: Functional activity is expressed as percent efficacy for alpha-7 nAChR.
Each entry below carries its recorded Efficacy.

[
  {
    "Molecule": "C[N+]1(C)C2CCC1CC(OC(=O)c1c[nH]c3ccccc13)C2 (centres undefined)",
    "Target Under Test": "Neuronal acetylcholine receptor subunit alpha-7 (Mus musculus)",
    "Efficacy (%)": 13
  },
  {
    "Molecule": "O=C(OC1CN2CCC1CC2)n1ccc2ccccc21 (centres undefined)",
    "Target Under Test": "Neuronal acetylcholine receptor subunit alpha-7 (Mus musculus)",
    "Efficacy (%)": 17
  },
  {
    "Molecule": "CN1CCC[C@H]1c1cccnc1 [NICOTINE]",
    "Target Under Test": "Neuronal acetylcholine receptor subunit alpha-7 (Mus musculus)",
    "Efficacy (%)": 53
  },
  {
    "Molecule": "CC(=O)OCC[N+](C)(C)C",
    "Target Under Test": "Neuronal acetylcholine receptor subunit alpha-7 (Mus musculus)",
    "Efficacy (%)": 100
  }
]

---

- Target Under Test: Neuronal acetylcholine receptor subunit alpha-7 (Homo sapiens, UniProt P36544)
- Sequence (P36544 whole entry): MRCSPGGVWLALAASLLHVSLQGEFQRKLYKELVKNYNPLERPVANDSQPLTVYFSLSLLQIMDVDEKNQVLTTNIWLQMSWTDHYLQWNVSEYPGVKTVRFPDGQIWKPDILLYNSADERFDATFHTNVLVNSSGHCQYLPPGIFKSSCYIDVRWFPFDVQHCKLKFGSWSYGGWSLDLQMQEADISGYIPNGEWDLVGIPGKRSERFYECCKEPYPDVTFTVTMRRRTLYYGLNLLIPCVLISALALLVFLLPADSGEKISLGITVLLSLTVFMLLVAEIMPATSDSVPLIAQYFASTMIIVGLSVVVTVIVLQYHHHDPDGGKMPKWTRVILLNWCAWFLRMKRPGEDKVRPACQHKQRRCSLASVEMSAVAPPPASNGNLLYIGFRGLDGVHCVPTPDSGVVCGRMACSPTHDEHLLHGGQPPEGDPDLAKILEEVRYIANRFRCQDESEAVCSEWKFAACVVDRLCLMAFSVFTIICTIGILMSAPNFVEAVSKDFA
- Assay: Effective concentration that causes inhibition of alpha-7 nAChR, was determined. Values are expressed as EC50 +/- SEM.

[
  {
    "Compound": "C[N+]1(C)C2CCC1CC(OC(=O)c1c[nH]c3ccccc13)C2 (configuration not stated)",
    "EC50, nM": 280
  },
  {
    "Compound": "O=C(OC1CN2CCC1CC2)n1ccc2ccccc21 (configuration not stated)",
    "EC50, nM": 4800
  }
]

---

- Target Under Test: Neuronal acetylcholine receptor subunit alpha-7 (Mus musculus, UniProt P49582)
- Sequence (P49582 whole entry): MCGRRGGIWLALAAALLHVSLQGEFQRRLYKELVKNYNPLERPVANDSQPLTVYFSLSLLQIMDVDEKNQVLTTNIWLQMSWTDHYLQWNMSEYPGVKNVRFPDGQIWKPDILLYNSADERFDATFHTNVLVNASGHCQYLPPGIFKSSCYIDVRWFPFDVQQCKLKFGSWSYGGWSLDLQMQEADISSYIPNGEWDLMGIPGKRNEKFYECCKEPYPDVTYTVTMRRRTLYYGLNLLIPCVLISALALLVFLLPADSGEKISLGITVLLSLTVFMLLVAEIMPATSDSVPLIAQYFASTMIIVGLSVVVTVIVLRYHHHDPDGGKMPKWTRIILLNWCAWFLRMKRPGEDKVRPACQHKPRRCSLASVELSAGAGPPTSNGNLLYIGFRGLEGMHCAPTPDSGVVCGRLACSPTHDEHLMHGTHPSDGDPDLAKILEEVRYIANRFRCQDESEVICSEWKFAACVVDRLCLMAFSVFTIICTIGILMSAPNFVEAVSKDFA
- Assay: In vitro Binding affinity towards alpha-7 nAChR was determined
pKi: −log10 of the molar value.

[
  {
    "Compound": "CN1CCC[C@H]1c1cccnc1",
    "Censoring Sign": "=",
    "pKi": 6.32
  },
  {
    "Compound": "CN1C2CCCC1CC(NC(=O)c1nn(C)c3ccccc13)C2 (stereo not given)",
    "Censoring Sign": "<",
    "pKi": 5.00
  },
  {
    "Compound": "O=C(OC1CN2CCC1CC2)n1ccc2ccccc21 (stereo not given)",
    "Censoring Sign": "=",
    "pKi": 8.06
  },
  {
    "Compound": "Cc1nccn1CC1CCc2c(c3ccccc3n2C)C1=O (stereo not given)",
    "Censoring Sign": "<",
    "pKi": 5.52
  },
  {
    "Compound": "C[N+]1(C)C2CCC1CC(OC(=O)c1c[nH]c3ccccc13)C2 (stereo not given)",
    "Censoring Sign": "=",
    "pKi": 8.19
  }
]

---

- Target Under Test: Acetylcholine receptor; alpha1/beta1/delta/gamma (Homo sapiens, UniProt P02708+P07510+P11230+Q07001)
- Sequence (P02708 whole entry): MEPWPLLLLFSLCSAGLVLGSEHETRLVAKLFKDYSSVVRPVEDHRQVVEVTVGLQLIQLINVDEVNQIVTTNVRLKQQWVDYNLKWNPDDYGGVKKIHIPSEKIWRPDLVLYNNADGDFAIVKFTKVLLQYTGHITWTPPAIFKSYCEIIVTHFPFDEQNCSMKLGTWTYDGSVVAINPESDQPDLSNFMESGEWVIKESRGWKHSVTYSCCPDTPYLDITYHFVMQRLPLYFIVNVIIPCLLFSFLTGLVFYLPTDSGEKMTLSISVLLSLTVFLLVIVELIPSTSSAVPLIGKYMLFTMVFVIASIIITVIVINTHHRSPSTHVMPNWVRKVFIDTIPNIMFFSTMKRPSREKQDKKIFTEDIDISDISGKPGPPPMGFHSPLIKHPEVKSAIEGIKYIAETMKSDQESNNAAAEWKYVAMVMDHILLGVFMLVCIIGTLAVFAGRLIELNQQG
- Sequence (P07510 whole entry): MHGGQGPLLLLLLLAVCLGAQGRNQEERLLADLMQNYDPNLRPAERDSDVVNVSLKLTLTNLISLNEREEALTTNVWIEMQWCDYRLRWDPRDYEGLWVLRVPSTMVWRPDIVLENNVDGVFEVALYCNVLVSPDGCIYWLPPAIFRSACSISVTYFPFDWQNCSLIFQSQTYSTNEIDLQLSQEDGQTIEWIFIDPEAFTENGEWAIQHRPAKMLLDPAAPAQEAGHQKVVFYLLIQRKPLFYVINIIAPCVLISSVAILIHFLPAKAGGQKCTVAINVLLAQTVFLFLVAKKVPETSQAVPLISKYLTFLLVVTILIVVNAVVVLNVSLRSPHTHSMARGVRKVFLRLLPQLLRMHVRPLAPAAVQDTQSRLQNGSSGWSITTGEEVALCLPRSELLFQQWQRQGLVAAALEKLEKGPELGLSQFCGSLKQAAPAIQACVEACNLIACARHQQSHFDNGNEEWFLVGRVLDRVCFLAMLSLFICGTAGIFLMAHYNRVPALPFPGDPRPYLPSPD
- Sequence (P11230 whole entry): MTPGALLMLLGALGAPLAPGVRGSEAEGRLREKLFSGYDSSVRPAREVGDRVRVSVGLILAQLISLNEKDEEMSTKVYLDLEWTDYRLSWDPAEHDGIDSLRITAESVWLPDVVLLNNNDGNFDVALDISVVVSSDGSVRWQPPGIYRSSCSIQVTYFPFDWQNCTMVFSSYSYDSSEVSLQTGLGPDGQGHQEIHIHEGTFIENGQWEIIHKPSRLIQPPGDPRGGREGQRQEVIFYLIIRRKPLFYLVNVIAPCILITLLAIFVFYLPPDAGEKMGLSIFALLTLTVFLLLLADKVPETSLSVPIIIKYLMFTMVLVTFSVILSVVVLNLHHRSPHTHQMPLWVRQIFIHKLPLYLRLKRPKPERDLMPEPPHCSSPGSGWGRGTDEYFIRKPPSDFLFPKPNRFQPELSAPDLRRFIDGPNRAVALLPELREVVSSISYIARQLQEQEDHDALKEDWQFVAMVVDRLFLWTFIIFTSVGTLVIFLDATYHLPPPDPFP
- Sequence (Q07001 whole entry): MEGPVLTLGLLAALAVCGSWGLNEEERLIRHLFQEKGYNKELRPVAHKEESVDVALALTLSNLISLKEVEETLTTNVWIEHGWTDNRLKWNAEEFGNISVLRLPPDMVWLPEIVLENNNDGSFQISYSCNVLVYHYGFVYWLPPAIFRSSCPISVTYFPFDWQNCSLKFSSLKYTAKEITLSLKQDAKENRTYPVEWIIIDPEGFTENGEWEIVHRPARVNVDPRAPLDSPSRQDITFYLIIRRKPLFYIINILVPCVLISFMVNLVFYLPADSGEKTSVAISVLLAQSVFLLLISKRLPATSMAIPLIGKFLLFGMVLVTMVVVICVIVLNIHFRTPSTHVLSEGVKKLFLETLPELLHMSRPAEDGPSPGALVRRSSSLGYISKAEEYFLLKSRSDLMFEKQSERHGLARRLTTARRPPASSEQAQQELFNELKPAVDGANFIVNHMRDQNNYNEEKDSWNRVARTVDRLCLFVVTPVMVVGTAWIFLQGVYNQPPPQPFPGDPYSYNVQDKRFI
- Assay: In vitro Binding affinity towards alpha-1-beta-1-gamma delta nAChR was determined
Outcome Measure: Ki (µM)

[
  {
    "Smiles Notation": "CN1CCC[C@H]1c1cccnc1",
    "Outcome Measure": "Ki",
    "Readout Number": 5.5
  }
]

---

- Target Under Test: Neuronal acetylcholine receptor; alpha4/beta2 (Homo sapiens, UniProt P17787+P43681)
- Sequence (P17787 whole entry): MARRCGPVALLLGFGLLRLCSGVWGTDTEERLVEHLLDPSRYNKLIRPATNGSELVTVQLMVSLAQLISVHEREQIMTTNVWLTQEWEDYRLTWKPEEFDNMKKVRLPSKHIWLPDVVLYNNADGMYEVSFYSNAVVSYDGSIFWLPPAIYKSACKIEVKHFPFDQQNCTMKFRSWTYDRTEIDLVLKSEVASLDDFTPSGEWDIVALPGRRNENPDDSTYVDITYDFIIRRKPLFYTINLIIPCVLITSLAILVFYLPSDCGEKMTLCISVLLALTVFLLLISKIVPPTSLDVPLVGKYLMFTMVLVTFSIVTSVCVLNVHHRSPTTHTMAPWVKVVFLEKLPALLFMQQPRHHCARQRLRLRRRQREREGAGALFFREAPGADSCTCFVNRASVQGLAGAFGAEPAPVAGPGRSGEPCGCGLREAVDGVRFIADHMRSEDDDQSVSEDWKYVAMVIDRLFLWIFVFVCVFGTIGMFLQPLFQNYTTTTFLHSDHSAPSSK
- Sequence (P43681 whole entry): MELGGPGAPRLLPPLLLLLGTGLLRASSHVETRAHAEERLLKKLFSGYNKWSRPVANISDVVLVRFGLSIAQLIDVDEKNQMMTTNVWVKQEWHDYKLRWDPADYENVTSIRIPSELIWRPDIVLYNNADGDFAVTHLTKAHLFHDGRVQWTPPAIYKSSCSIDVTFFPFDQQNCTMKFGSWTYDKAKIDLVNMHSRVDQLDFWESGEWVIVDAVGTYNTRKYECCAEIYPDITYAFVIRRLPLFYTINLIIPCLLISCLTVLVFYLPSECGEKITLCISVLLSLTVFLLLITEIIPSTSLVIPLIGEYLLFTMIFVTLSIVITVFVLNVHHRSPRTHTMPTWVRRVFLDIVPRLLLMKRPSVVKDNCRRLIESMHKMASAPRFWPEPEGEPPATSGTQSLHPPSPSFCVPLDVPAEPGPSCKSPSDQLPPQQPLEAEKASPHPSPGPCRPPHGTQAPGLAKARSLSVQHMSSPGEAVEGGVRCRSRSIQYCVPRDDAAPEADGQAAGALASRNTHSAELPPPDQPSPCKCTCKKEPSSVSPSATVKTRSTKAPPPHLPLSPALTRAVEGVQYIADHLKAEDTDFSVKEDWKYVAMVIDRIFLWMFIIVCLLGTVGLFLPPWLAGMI
- Assay: In vitro Binding affinity towards Nicotinic acetylcholine receptor alpha4-beta2 was determined
pKi: −log10 of the molar value.

[
  {
    "Molecule": "Cc1nccn1CC1CCc2c(c3ccccc3n2C)C1=O (stereo not given) [ONDANSETRON]",
    "pKi": 4.34
  },
  {
    "Molecule": "C[N+]1(C)C2CCC1CC(OC(=O)c1c[nH]c3ccccc13)C2 (stereo not given)",
    "pKi": 5.11
  },
  {
    "Molecule": "O=C(OC1CN2CCC1CC2)n1ccc2ccccc21 (stereo not given)",
    "pKi": 4.85
  },
  {
    "Molecule": "CN1[C@@H]2CC[C@H]1C[C@@H](OC(=O)c1c[nH]c3ccccc13)C2 [TROPISETRON]",
    "pKi": 4.26
  },
  {
    "Molecule": "CN1C2CCCC1CC(NC(=O)c1nn(C)c3ccccc13)C2 (stereo not given) [GRANISETRON]",
    "pKi": 4.42
  }
]
